Assay: Stability in rat plasma after 1 hr at 37.5 degC
Assay type: ADME, cell-free
Settings: read-out: Stability
property label: remaining at 1 h

# compound structure string, measurement
data = [
    ("Cc1cc2c(CCc3ccccc3)c(O)c(O)cc2c(O)c1-c1c(C)cc2c(CCc3ccccc3)c(O)c(O)cc2c1O", "80%"),
    ("Cc1cc2c(C(=O)NCCc3ccccc3)c(O)c(O)cc2c(O)c1-c1c(C)cc2c(C(=O)NCCc3ccccc3)c(O)c(O)cc2c1O", "63%"),
    ("Cc1cc2c(C(C)C)c(O)c(O)cc2c(O)c1-c1c(C)cc2c(C(C)C)c(O)c(O)cc2c1O", "53%"),
]

Consider the record given below.
Q: Supply remaining at 1 h value. Item: Cc1cc2c(C(=O)NCC3CCCCC3)c(O)c(O)cc2c(O)c1-c1c(C)cc2c(C(=O)NCC3CCCCC3)c(O)c(O)cc2c1O
A: 89%

---

Test: Cytotoxicity against human PC3-ML cells assessed as cell viability after 72 hrs by ATP-LITE assay
Assay type: functional, cell-based
Response field label: string, one of satisfied (EC50 strictly below 10 µM) or not satisfied.

# compound structure string, qualitative label
data = [
    ("Cc1cc2c(C(=O)NCc3cccc(Cl)c3)c(O)c(O)cc2c(O)c1-c1c(C)cc2c(C(=O)NCc3cccc(Cl)c3)c(O)c(O)cc2c1O", "satisfied"),
]

Q: Strictly below 10 µM: is that where EC50 of Cc1cc2c(CC3CCCC3)c(O)c(O)cc2c(O)c1-c1c(C)cc2c(CC3CCCC3)c(O)c(O)cc2c1O sits?
A: not satisfied

Q: Strictly below 10 µM: is that where EC50 of Cc1cc2c(C(C)C)c(O)c(O)cc2c(O)c1-c1c(C)cc2c(C(C)C)c(O)c(O)cc2c1O sits?
A: not satisfied

Q: Strictly below 10 µM: is that where EC50 of Cc1cc2c(CCc3ccccc3)c(O)c(O)cc2c(O)c1-c1c(C)cc2c(CCc3ccccc3)c(O)c(O)cc2c1O sits?
A: satisfied

Q: Strictly below 10 µM: is that where EC50 of Cc1cc2c(C(=O)O)c(O)c(O)cc2c(O)c1-c1c(C)cc2c(C(=O)O)c(O)c(O)cc2c1O sits?
A: not satisfied

Q: Strictly below 10 µM: is that where EC50 of Cc1cc2c(C(C)C)c(O)c(O)c(C=O)c2c(O)c1-c1c(C)cc2c(C(C)C)c(O)c(O)c(C=O)c2c1O sits?
A: satisfied

Q: Strictly below 10 µM: is that where EC50 of Cc1cc2c(C(=O)NC3CCCC3)c(O)c(O)cc2c(O)c1-c1c(C)cc2c(C(=O)NC3CCCC3)c(O)c(O)cc2c1O sits?
A: not satisfied

---

Test: Stability in rat liver microsome at 4 uM after 1 hr
Format: ADME
Conditions: liver microsomes, read-out: Stability
property label: remaining at 1 h, 4 µM (%)
Numbers only, in %.

The examples below pair each entry with its known result.
# molecule, measurement
records = [
    ("Cc1cc2c(CC3CCCC3)c(O)c(O)cc2c(O)c1-c1c(C)cc2c(CC3CCCC3)c(O)c(O)cc2c1O", 75),
    ("Cc1cc2c(C(=O)NC(C)c3ccc(Cl)cc3)c(O)c(O)cc2c(O)c1-c1c(C)cc2c(C(=O)NC(C)c3ccc(Cl)cc3)c(O)c(O)cc2c1O (centres undefined)", 71),
]

Lab note: each molecule below needs its remaining at 1 h, 4 µM filled in.
1. CCc1ccc(CCNC(=O)c2c(O)c(O)cc3c(O)c(-c4c(C)cc5c(C(=O)NCCc6ccc(CC)cc6)c(O)c(O)cc5c4O)c(C)cc23)cc1
2. Cc1cc2c(C(=O)NCC3CCCCC3)c(O)c(O)cc2c(O)c1-c1c(C)cc2c(C(=O)NCC3CCCCC3)c(O)c(O)cc2c1O
3. Cc1cc2c(CCc3ccccc3)c(O)c(O)cc2c(O)c1-c1c(C)cc2c(CCc3ccccc3)c(O)c(O)cc2c1O
4. Cc1cc2c(C(=O)NCCc3ccccc3)c(O)c(O)cc2c(O)c1-c1c(C)cc2c(C(=O)NCCc3ccccc3)c(O)c(O)cc2c1O
5. Cc1cc2c(C(=O)NCCc3cccc(Cl)c3)c(O)c(O)cc2c(O)c1-c1c(C)cc2c(C(=O)NCCc3cccc(Cl)c3)c(O)c(O)cc2c1O
6. Cc1cc2c(C(=O)NCC(C)c3ccccc3)c(O)c(O)cc2c(O)c1-c1c(C)cc2c(C(=O)NCC(C)c3ccccc3)c(O)c(O)cc2c1O (centres undefined)
7. Cc1cc2c(C(C)C)c(O)c(O)cc2c(O)c1-c1c(C)cc2c(C(C)C)c(O)c(O)cc2c1O

A:
87
90
89
60
90
76
64
